B1: glmS ribozyme (parent)
chain: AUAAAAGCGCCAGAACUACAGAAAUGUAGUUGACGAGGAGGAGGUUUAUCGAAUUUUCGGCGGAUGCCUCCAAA

Variants of: B1
assayText: self-cleavage kobs at 10000 uM GlcN6P; higher = faster cleavage; RNA array
experimentalSetup: with glucosamine-6-phosphate
Variants at the floor of the assay were thinned out.
measuredAttribute: self-cleavage kobs at 10000 uM GlcN6P (s⁻¹)
Numeric only. Scale: s⁻¹

Query: Read off the recorded self-cleavage kobs at 10000 uM GlcN6P for U45C C71A
Result: 0.000832

Query: Give the value of self-cleavage kobs at 10000 uM GlcN6P reported for the following: U47G U56C A64G
Result: 9.62e-05

Query: Provide one value: measured self-cleavage kobs at 10000 uM GlcN6P of C11A A15G C16A G29U
Result: 0.000192

Query: Consider the variant G29C C58A . State its measured self-cleavage kobs at 10000 uM GlcN6P.
Result: 0.000108

Query: Check the records and state self-cleavage kobs at 10000 uM GlcN6P for G29C U57A
Result: 3.78e-05

Query: Give the reported value of self-cleavage kobs at 10000 uM GlcN6P for this record: U54C U65G
Result: 0.00371

Query: Provide one value: measured self-cleavage kobs at 10000 uM GlcN6P of C11U A39C
Result: 0.00051

Query: Please report the measured self-cleavage kobs at 10000 uM GlcN6P for U31G U56G C67U
Result: 0.00086

Query: Entry U56G C71A needs its self-cleavage kobs at 10000 uM GlcN6P filled in; supply it.
Result: 0.00215
